System: CCRF-CEM leukemia
measurement_description: NCI-60 one-dose screen, 48 h (100 = growth as untreated, 0 = no growth, -100 = all killed)
settings: 10 µM unless noted
About 83,000 compounds went through this panel and 20% of them were active in at least one assay; those are over-represented in the sample as a whole.
outcome_measure: growth (%)
Reply numerically in %, unit not repeated.

Prompt: Look at this compound and give its reported growth. O=C1c2cc3c(cc2-c2c1c1cc(F)c(F)cc1c(=O)n2C[C@H](O)CO)OCO3
Response: -10.9

Prompt: Another compound: CCN(CC)CCCCNc1ccc(NCCCCN(CC)CC)c2c1C(=O)c1ccccc1C2=O
Response: 78.6

Prompt: Here is the next compound: CC1=N/C(=C\c2cccc(Br)c2)C(=O)O1
Response: 107

Prompt: Entry to check: COc1cc2c(=O)n(CC3CCCCC3)c3c4cc[nH]c4ncc3c2cc1OC
Response: 39.5

Prompt: Same question, COc1ccc(-c2cc(-c3ccc(N(C)C)cc3)nc(NC(=O)c3ccncc3)n2)cc1 this time
Response: 96.8

---
Prompt: # growth lookup, item Cn1c(=O)c2[nH]c(C(O)C(O)C(O)C(O)CO)nc2n(C)c1=O (stereo not given)
Response: 105

----------
Consider the following molecules and their measured growth readings.
System: NCI/ADR-RES ovarian
measurement_description: NCI-60 one-dose screen, 48 h (100 = growth as untreated, 0 = no growth, -100 = all killed)
settings: 10 µM unless noted
About 83,000 compounds went through this panel and 20% of them were active in at least one assay; those are over-represented in the sample as a whole. Active and inactive are the calls of the source. How the source made its calls: active means growth percent below 10; inactive means the rest.

Prompt: Can you look up growth on NCI/ADR-RES ovarian for CCN(C(=O)CN1CCN(c2cc3c(cc2F)c(=O)c(C(=O)O)cn3C2CC2)CC1)c1nc(-c2ccc(OC)cc2)cs1 ?
Response: 59.3% (inactive)

Prompt: Field entry: COc1cc(C2CC(=O)c3c(C)nn(-c4nc5ccccc5[nH]4)c3C2)cc(OC)c1OC (stereo not given)
Response: 64.9% (inactive)

Prompt: Quick one: CC[C@@H](C)OC(=O)c1nn(C(C)=O)c2ccccc12
Response: 94.2% (inactive)

Others:
Prompt: API: value(readout=growth, system=NCI/ADR-RES ovarian) for record CCN(CC)CCCC(C)N/C(=C1\C(=O)NC(=O)\C1=C(/NC(C)CCCN(CC)CC)c1cccc(OC)c1)c1cccc(OC)c1 (stereo not given)
Response: 2.36% (active)

Prompt: What do you get for CC/C=C\C[C@H](O)C/C=C1/C(=O)C=C[C@@H]1C/C=C\CCCC(N)=O ?
Response: 10.7% (inactive)

----------
System: M14 melanoma
measurement_description: NCI-60 one-dose screen, 48 h (100 = growth as untreated, 0 = no growth, -100 = all killed)
settings: 10 µM unless noted
This is part of a sample that, as a whole, favours compounds with a hit. Of some 83,000 tested, about 20% had one in any assay.
Each entry gets No if its growth stays under 80%, and Yes if its growth is 80% or above.

# count of solved cases: 5
Prompt: Decide: growth of Cc1ccc2c(NCCCN(C)C)c3c(C)nn(C)c3nc2c1 >= 80%?
Response: No

Prompt: Field entry: CC#Cc1nc2ccccc2c(=O)[nH]1
Response: No

Prompt: What would you report for COc1ccc(-c2nc(Nc3cc(C)[nH]n3)c3ccccc3n2)cc1 ?
Response: No

Prompt: Another compound to look at: O=C(CCCCN1CCOCC1)Nc1ccc(Cn2nnc3c2C(=O)c2nnn(Cc4ccc(NC(=O)CCCCN5CCOCC5)cc4)c2C3=O)cc1
Response: No

Prompt: Similarly, COc1cc(C2C(C(=O)c3cccs3)=C(O)C(=O)N2CCN2CCOCC2)cc(OC)c1OC (centres undefined) ?
Response: Yes

Others:
Prompt: Item C=C(C[n+]1ccccc1)[C@@H]1CC[C@]2(C(=O)OC)CC[C@]3(C)[C@H](CC[C@@H]4[C@@]5(C)CC[C@H](O)C(C)(C)[C@@H]5CC[C@]43C)[C@@H]12 with growth of 80% or above?
Response: Yes

Prompt: // repeat for CC/C(Cc1ccccc1)=C(\c1ccc(OCCN2CCCC2)cc1)c1ccc(OC(C)=O)cc1 and report
Response: No

----------
Tested on: SF-268 CNS
measurement_description: NCI-60 one-dose screen, 48 h (100 = growth as untreated, 0 = no growth, -100 = all killed)
settings: 10 µM unless noted
Compounds without any hit were thinned out: in the full panel of roughly 83,000, 20% have a hit.
We use 60% as the dividing line for growth: on or above the line is 1 (yes), below is 0 (no).

Reference set (4 entries):
Prompt: Reported growth at or above 60%? Nc1nc2c(c3ncccc13)C(c1ccc(Cl)c(Cl)c1)Cc1ncccc1-2 (stereo not given)
Response: 0 (no)

Prompt: Thanks! And Cc1cc(Nc2nc(N3CCOCC3)nc3ccccc23)n[nH]1 ?
Response: 1 (yes)

Prompt: Follow-up item: COc1cc2c(cc1O)CCc1cc(O)cc(OC)c1-2
Response: 1 (yes)

Prompt: Then this compound: O=C(Nc1ccc(CN2CCOCC2)cc1)c1[nH]ncc1Nc1ncnc2sccc12
Response: 0 (no)

Kindly consider the entry below.
Prompt: Entry COc1ccc(S(=O)(=O)NCCNc2nccc(-c3c(-c4cccc(N)c4)nc4sccn34)n2)cc1 : is its growth no less than 60%?
Response: 1 (yes)

----------
System: DU-145 prostate
measurement_description: NCI-60 one-dose screen, 48 h (100 = growth as untreated, 0 = no growth, -100 = all killed)
settings: 10 µM unless noted
The panel holds about 83,000 compounds, 20% with a hit somewhere; the sample as a whole holds those more often.
Measured growth values are reported for all entries that follow.
Reply numerically in %, unit not repeated.

# count of solved cases: 6
Prompt: Quick one: growth for O=C1Nc2ccccc2C12CC(c1ccccc1)=NN2 (stereo unspecified) ?
Response: 88.1

Prompt: And what about the compound CC(=O)N1CC(Nc2ccc(OC(F)(F)F)cc2)=CC1=O ?
Response: 27

Prompt: Next entry: O=C(/C=C/c1ccc(Cl)cc1)/C=C/c1cc2ccccc2[nH]c1=O
Response: 79.3

Prompt: Try CCN(CC)CC(C)(C)C(=O)/C=C/c1ccccc1 next.
Response: 8.96

Prompt: Also, CS(=O)(=O)c1c(Nc2ccccc2)n[nH]c1N please.
Response: 115

Prompt: Same for O=C(NC(Cc1ccccc1)C(=O)CCl)OCc1ccccc1 (stereo unspecified)
Response: 93.5

***
Prompt: What growth value was documented for this compound, CC1=C(NCCN2CCCC2)C(=O)c2c(OCc3ccc(F)c(Cl)c3)cccc2C1=O ?
Response: 84.3

----------
System: MOLT-4 leukemia
measurement_description: NCI-60 one-dose screen, 48 h
settings: 10 µM unless noted
About 83,000 compounds went through this panel and 20% of them were active in at least one assay; those are over-represented in the sample as a whole. Calls of active or inactive are those of the source. How the source made its calls: active means growth percent below 10; inactive means the rest.
Give your call using only these classes: 1.0 for active, 0.0 for inactive

Prompt: Hi team, can someone confirm the assay call for O=S(=O)(Nc1ccc(Cl)cc1Cl)c1ccc(-c2cnc(C3CC3)o2)cc1 ?
Response: 0.0

Prompt: Same question for Cc1ccc(S(=O)(=O)N(CCc2ccc(Cl)cc2)S(=O)(=O)c2ccc(C)cc2)cc1 please.
Response: 0.0

Prompt: Same for O=C(COc1cccc(/C=C2/Oc3ccccc3C2=O)c1)Nc1nccs1
Response: 0.0

Prompt: # iterate: C/C(Cc1ccc(Cl)cc1)=C(\c1ccc(OCCN2CCCCCC2)cc1)c1ccc(OC(=O)Cc2ccccc2)cc1
Response: 0.0

Prompt: Cool, now C[C@@H]1CC[C@@H]2[C@@H]1[C@H](OC(=O)/C=C/c1ccccc1)[C@]1(C3CCCCC3)C[C@@H](OC(=O)CO)[C@@]2(C)O1
Response: 0.0

---
Prompt: Any idea what this test logged for C(=N\Nc1nnn(Cc2ccccc2)n1)/c1ccccc1 ?
Response: 0.0

Prompt: Check O=C1OC2C(I)C3CC2C1C3c1ccccc1 (stereo unspecified) too.
Response: 0.0

Prompt: Then CCNS(=O)(=O)c1ncnc2nc[nH]c12 ?
Response: 0.0

Prompt: Same question, COC1C/C(=N\O)C2OC(c3ccccc3)OCC2O1 (stereo unspecified) this time
Response: 0.0

Prompt: Then CC(=O)C1=C(O)C=C2Oc3c(C(=O)/C=C/c4cc(C(F)(F)F)cc(C(F)(F)F)c4)c(O)c(C)c(O)c3[C@]2(C)C1=O ?
Response: 1.0

Prompt: Now this one: NC1=CSC2=N/C(=C\c3ccc(Cl)cc3)C(=O)N12
Response: 1.0

Prompt: Also COc1ccc(CNc2nccnn2)cc1 , if possible.
Response: 0.0

----------
Tested on: UACC-257 melanoma
measurement_description: NCI-60 one-dose screen, 48 h (100 = growth as untreated, 0 = no growth, -100 = all killed)
settings: 10 µM unless noted
The panel holds about 83,000 compounds, 20% with a hit somewhere; the sample as a whole holds those more often.
outcome_measure: growth (%)
Entry rule: numbers only, all in %.

Prompt: Consider the compound shown here: CC(=O)O[C@H]1CC[C@]2(C)[C@H]3CC[C@@H]4[C@H]5[C@H](C(C)C)CC[C@]5(C(=O)OCC(CO)(CO)N=C(N)N)CC[C@@]4(C)[C@]3(C)CC[C@H]2C1(C)C What is its recorded growth?
Response: 90.2

Prompt: // same read-out, input: CC1=CC(=O)CC(C)(C)[C@@]1(O)/C=C/[C@@H](C)O
Response: 89.1

Prompt: Next compound up: CCCCCCCCCCCCN1CCCC(C)C1 (stereo not given)
Response: 88.3

Prompt: Try this compound next: Cc1noc(C)c1-c1cc(O)cc(C(O)c2ccccc2)c1 (stereo not given)
Response: 40.4

---
Prompt: Item under review: C=CC[N+]1(CC)CCN=C1CCCCCCCCCCCCCCCCC (stereo not given) . Reported growth?
Response: -91.3
